B1: ZNF207 (parent)
chain: FQPQPVQPQQGYIPPMAQPGLPPV

# Variants of: B1
# method.summary: protein stability index of a GFP-peptide fusion (GPS, HEK-293T) (PSI 1-6); higher = more stable;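 further: lentivirally expressed fusions sorted by FACS into six bins by GFP to DsRed ratio, PSI derived from sequencing read proportions per bin multiplied by bin number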
# test.parameters: c terminus: a fixed tail appended
readout.name: protein stability index
Could you keep your reply to the number by itself?

Guide cases for protein stability index, answers given:
mutant_code=F1A recorded_result=4.29
mutant_code=A17E recorded_result=3.42
mutant_code=P3L recorded_result=3.2

## Input Indicate the recorded protein stability index value for this variant: Q7G
## Output 2.78

## Input Please indicate protein stability index recorded for A17H
## Output 3.12

## Input Give the value of protein stability index reported for the following: G20R
## Output 3.33

## Input Report measured protein stability index; entry is Q7H
## Output 2.82

## Input Provide one value: measured protein stability index of Q4Y
## Output 1.83
